Some molecules, each annotated with its measured EC50.
- system_under_test: Short transient receptor potential channel 4 (Mus musculus)
- Sequence (Q9QUQ5 whole entry): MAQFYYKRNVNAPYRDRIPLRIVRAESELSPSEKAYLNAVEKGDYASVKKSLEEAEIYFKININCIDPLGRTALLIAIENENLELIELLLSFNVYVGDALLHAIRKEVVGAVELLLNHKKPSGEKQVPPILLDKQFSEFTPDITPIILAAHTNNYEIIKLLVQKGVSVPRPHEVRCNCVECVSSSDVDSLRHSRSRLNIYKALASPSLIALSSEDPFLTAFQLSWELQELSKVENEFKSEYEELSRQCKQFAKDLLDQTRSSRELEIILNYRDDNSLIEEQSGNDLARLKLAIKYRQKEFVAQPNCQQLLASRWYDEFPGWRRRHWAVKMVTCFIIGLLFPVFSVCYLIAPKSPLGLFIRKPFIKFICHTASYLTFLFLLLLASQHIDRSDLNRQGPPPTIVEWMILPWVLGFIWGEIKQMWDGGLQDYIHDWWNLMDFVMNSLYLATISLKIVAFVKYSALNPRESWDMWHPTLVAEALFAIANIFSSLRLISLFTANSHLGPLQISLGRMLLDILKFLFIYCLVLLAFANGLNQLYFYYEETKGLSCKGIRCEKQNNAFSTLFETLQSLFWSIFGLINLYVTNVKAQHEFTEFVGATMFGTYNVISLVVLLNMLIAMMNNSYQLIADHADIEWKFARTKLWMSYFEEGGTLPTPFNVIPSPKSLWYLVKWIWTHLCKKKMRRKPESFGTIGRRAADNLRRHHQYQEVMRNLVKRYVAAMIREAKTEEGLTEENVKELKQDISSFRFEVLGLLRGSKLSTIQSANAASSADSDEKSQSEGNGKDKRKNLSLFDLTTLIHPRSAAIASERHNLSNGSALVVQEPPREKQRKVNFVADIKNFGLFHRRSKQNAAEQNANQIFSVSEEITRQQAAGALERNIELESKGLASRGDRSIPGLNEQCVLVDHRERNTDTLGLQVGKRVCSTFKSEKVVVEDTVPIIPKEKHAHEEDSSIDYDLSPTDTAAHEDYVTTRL
- protocol: mouse TRPC4 channel inhibitors, dose response, cell-based, HEK293 TRPC4/mu-opioid, Fluo-4 calcium (AID 434942);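 also: potency of inhibitors blocking the TRPC4 calcium response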
- Assay type: functional
Activity calls are given as the source filed them. No rule for the calls is given here.

Some entries whose results are on file:
molecule | EC50
NC(=O)c1nsc(C(=O)N(Cc2ccccc2F)C(C(=O)NCC2CCCO2)c2ccc(F)cc2)c1N (stereo unspecified) | 473 nM (active)
CCN(CC)Cc1cc(CCNC(=O)c2ccc(Cl)cc2)ccc1O | 4730 nM (active)
CCCCC(=O)N(c1ccc(C(=O)O)cc1)c1nc(-c2ccc(Cl)cc2)c(CC)s1 | 10600 nM (active)
COc1cccc(CC2(CO)CCCN(Cc3ccccc3-c3ccco3)C2)c1 (stereo unspecified) | 1190 nM (active)
O=C(c1ccc(Cl)cc1)C1CCCN(C2CCSCC2)C1 (stereo unspecified) | 531 nM (active)

Input OCCNCc1cc(Br)ccc1OCc1ccc(F)cc1 , output reported EC50.
1880 nM (active)

====

- system_under_test: Induced myeloid leukemia cell differentiation protein Mcl-1 (Homo sapiens)
- Sequence (Q07820 whole entry): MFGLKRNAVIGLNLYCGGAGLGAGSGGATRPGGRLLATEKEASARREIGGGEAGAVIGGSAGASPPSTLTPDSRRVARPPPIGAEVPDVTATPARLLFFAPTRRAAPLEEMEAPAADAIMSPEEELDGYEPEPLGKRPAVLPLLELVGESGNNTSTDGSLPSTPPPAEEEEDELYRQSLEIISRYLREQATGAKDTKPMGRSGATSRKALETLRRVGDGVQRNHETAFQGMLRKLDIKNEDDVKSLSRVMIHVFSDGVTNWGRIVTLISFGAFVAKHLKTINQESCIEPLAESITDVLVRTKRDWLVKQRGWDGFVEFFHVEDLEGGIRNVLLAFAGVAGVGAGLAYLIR
- Type: functional
Calls of active or inactive are those of the source.
Some compounds, each annotated with its measured IC50.

Some entries whose results are on file:
compound | system_under_test | IC50
Oc1ccccc1C1Nc2cccc3cccc(c23)N1 | Induced myeloid leukemia cell differentiation protein Mcl-1 (Homo sapiens) | 3.25 µM (active)
Oc1[nH]c2ccccc2c1N=Nc1nc2ccccc2s1 | Induced myeloid leukemia cell differentiation protein Mcl-1 (Homo sapiens) | 3.84 µM (active)
OC1=C2C(=Nc3ccc4ncccc4c3C2c2ccc(O)c(O)c2)CCC1 (stereo unspecified) | Induced myeloid leukemia cell differentiation protein Mcl-1 (Homo sapiens) | 4.38 µM (active)
O=c1oc2c(cc1O)oc(=O)c1cc(O)c(O)c(O)c12 | Induced myeloid leukemia cell differentiation protein Mcl-1 (Homo sapiens) | > 54 µM (active)

Input CCc1nn2c(=O)cc(COc3ccc(/C=C4\C(=N)N5N=C(C)SC5=NC4=O)cc3)nc2s1 , output reported IC50.
4.66 µM (active)

Input COc1cc(/C=N/NC(=O)C(Cc2c[nH]c3ccccc23)NC(=O)OCc2ccccc2)cc([N+](=O)[O-])c1O (stereo unspecified) , output reported IC50.
6.11 µM (active)
